Target: Kras and SOS1 (biotin-tagged human Kras loaded with GDP, His-tagged human SOS1) (Homo sapiens, UniProt P01116, G12D)
Construct: made in house; host or cells: E. coli (stated for Kras only)
Sequence (P01116 1-188 isoform P01116-2 G12D): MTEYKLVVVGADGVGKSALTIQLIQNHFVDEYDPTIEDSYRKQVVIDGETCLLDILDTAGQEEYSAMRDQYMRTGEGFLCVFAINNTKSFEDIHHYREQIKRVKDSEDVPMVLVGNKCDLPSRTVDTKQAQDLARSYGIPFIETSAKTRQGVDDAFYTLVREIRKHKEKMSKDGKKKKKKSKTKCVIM
Experiment: Protein-protein interaction inhibition between Kras and SOS1 (KrasGl2D-SOS PPI) using AlphaScreen
Format: binding
Conditions: AlphaScreen; biotin-tagged human Kras loaded with GDP, His-tagged human SOS1; read-out: KRAS G12D-SOS PPI IC50
Positions of bridges follow the written chain, without caps; N, C: chain ends. Non-standard residues stand in square brackets, D forms with d. Residues, ends and D or L forms follow the SMILES beside them. *: point of attachment. hPhe(3-Cl-4-CF3) = N[C@@H](CCc1ccc(C(F)(F)F)c(Cl)c1)C(=O)O; hPhe(3-F,4-CF3) = N[C@@H](CCc1ccc(C(F)(F)F)c(F)c1)C(=O)O; NMePhe(4-Cl) = CN[C@@H](Cc1ccc(Cl)cc1)C(=O)O; Leu(4,5-dehydro) = C=C(C)C[C@H](N)C(=O)O; NMeGly(cPent) = CN[C@H](C(=O)O)C1CCCC1; Phe(3-I) = N[C@@H](Cc1cccc(I)c1)C(=O)O; NMeChg = CN[C@H](C(=O)O)C1CCCCC1; NMeI = CC[C@H](C)[C@H](NC)C(=O)O; NMeD = CN[C@@H](CC(=O)O)C(=O)O; NMeL = CN[C@@H](CC(C)C)C(=O)O; Morpholide = C1CN(*)CCO1; NMeA = CN[C@@H](C)C(=O)O; NMeAib = CNC(C)(C)C(=O)O; Piperidide = C1CCN(*)CC1; Ac5c = NC1(C(=O)O)CCCC1; Aze = O=C(O)[C@@H]1CCN1; Sar = CNCC(=O)O
Hi! Just check whether IC50 is below 10 nM. Below gives Yes, equal or above gives No.

Previously resolved entries follow.
# Compound, Label value
data = [
    ("CC[C@H](C)[C@@H]1NC(=O)[C@H](CC(C)C)N(C)C(=O)C[C@@H](C(=O)N2CCOCC2)N(C)C(=O)[C@H]([C@@H](C)CC)N(C)C(=O)C2(CCCC2)NC(=O)[C@@H]2CCCN2C(=O)[C@H](CCc2ccc(C(F)(F)F)c(F)c2)NC(=O)CN(C)C(=O)[C@H](C2CCCC2)N(C)C(=O)[C@@H]2CCN2C(=O)[C@H](C)N(C)C1=O [Compound 1098] ([NMeL]I[NMeA][Aze][NMeGly(cPent)][Sar][hPhe(3-F,4-CF3)]P[Ac5c][NMeI][NMeD]-Morpholide; lactam N-11)", "Yes"),
    ("C=C(C)C[C@@H]1NC(=O)[C@H](Cc2cccc(I)c2)NC(=O)CN(C)C(=O)[C@H](Cc2ccc(Cl)cc2)N(C)C(=O)[C@@H]2CCN2C(=O)CN(C)C(=O)[C@H]([C@@H](C)CC)NC(=O)[C@H](CC(C)C)N(C)C(=O)C[C@@H](C(=O)N2CCCCC2)N(C)C(=O)[C@H](CC(C)C)NC(=O)C(C)(C)N(C)C1=O [Compound 1414] ([NMeL]I[Sar][Aze][NMePhe(4-Cl)][Sar][Phe(3-I)][Leu(4,5-dehydro)][NMeAib]L[NMeD]-Piperidide; lactam N-11)", "No"),
]

Kindly consider the entry below.
Prompt: Find out if reported IC50 for CC[C@H](C)[C@@H]1NC(=O)[C@H](CC(C)C)N(C)C(=O)C[C@@H](C(=O)N2CCCCC2)N(C)C(=O)[C@H](C2CCCCC2)N(C)C(=O)C2(CCCC2)NC(=O)[C@@H]2CCCN2C(=O)[C@H](CCc2ccc(C(F)(F)F)c(Cl)c2)NC(=O)CN(C)C(=O)[C@H](CC(C)C)N(C)C(=O)CN(C)C(=O)CN(C)C1=O [Compound 1652] ([NMeL]I[Sar][Sar][NMeL][Sar][hPhe(3-Cl-4-CF3)]P[Ac5c][NMeChg][NMeD]-Piperidide; lactam N-11) is less than 10 nM
Response: Yes

----------
Target: Kras and SOS1 (biotin-tagged human Kras loaded with GDP, His-tagged human SOS1) (Homo sapiens, UniProt P01116, G12D)
Construct: made in house; host or cells: E. coli (stated for Kras only)
Experiment: Protein-protein interaction inhibition between Kras and SOS1 (KrasGl2D-SOS PPI) using AlphaScreen
Type: binding
Settings: AlphaScreen; biotin-tagged human Kras loaded with GDP, His-tagged human SOS1; read-out: KRAS G12D-SOS PPI IC50
Positions of bridges follow the written chain, without caps; N, C: chain ends. Non-standard residues stand in square brackets, D forms with d. Residues, ends and D or L forms follow the SMILES beside them. *: point of attachment. hPhe(3-Cl-4-CF3) = N[C@@H](CCc1ccc(C(F)(F)F)c(Cl)c1)C(=O)O; NMePhe(2-CF3) = CN[C@@H](Cc1ccccc1C(F)(F)F)C(=O)O; Thiomorpholino(1,1-dioxo) = O=S1(=O)CCN(*)CC1; NMePhe(4-Cl) = CN[C@@H](Cc1ccc(Cl)cc1)C(=O)O; NMePhe(2-Cl) = CN[C@@H](Cc1ccccc1Cl)C(=O)O; NMeGly(cPent) = CN[C@H](C(=O)O)C1CCCC1; Phe(3-I) = N[C@@H](Cc1cccc(I)c1)C(=O)O; NMeCha = CN[C@@H](CC1CCCCC1)C(=O)O; NMeI = CC[C@H](C)[C@H](NC)C(=O)O; NMeE = CN[C@@H](CCC(=O)O)C(=O)O; NMeD = CN[C@@H](CC(=O)O)C(=O)O; NMeL = CN[C@@H](CC(C)C)C(=O)O; NMeV = CN[C@H](C(=O)O)C(C)C; NMeA = CN[C@@H](C)C(=O)O; Nle = CCCC[C@H](N)C(=O)O; Piperidide = C1CCN(*)CC1; Pyrrolidide = C1CCN(*)C1; Ac5c = NC1(C(=O)O)CCCC1; Aze = O=C(O)[C@@H]1CCN1; Sar = CNCC(=O)O
# pIC50 listing for each entry below
Scale for pIC50: -log10 of concentration given in mol/L; no unit attached.

# Compound, pIC50
records = [
    ("CC[C@H](C)[C@@H]1NC(=O)[C@H](CC(C)C)N(C)C(=O)C[C@@H](C(=O)N2CCCCC2)N(C)C(=O)[C@H](C(C)C)N(C)C(=O)C2(CCCC2)NC(=O)[C@@H]2CCCN2C(=O)[C@H](CCc2ccc(C(F)(F)F)c(Cl)c2)NC(=O)CN(C)C(=O)[C@H](CC2CCCCC2)N(C)C(=O)[C@@H]2CCN2C(=O)[C@H](CCC(=O)NC)N(C)C1=O [Compound 180] ([NMeL]I[NMeE](NHMe)[Aze][NMeCha][Sar][hPhe(3-Cl-4-CF3)]P[Ac5c][NMeV][NMeD]-Piperidide; lactam N-11)", 7.96),
    ("CC[C@H](C)[C@@H]1NC(=O)[C@H](CC(C)C)N(C)C(=O)C[C@@H](C(=O)N(C)C)N(C)C(=O)[C@H](C2CCCC2)N(C)C(=O)C2(CCCC2)NC(=O)[C@@H](C)NC(=O)[C@H](CCc2ccc(C(F)(F)F)c(Cl)c2)NC(=O)CN(C)C(=O)[C@H](CC2CCCCC2)N(C)C(=O)[C@@H]2CCN2C(=O)[C@H](C)N(C)C1=O [Compound 191] ([NMeL]I[NMeA][Aze][NMeCha][Sar][hPhe(3-Cl-4-CF3)][dA][Ac5c][NMeGly(cPent)][NMeD]-NMe2; lactam N-11)", 8.47),
    ("CC[C@H](C)[C@@H]1NC(=O)[C@H](C)N(C)C(=O)C[C@@H](C(=O)N2CCCC2)N(C)C(=O)[C@H](C(C)C)N(C)C(=O)[C@H](C)NC(=O)[C@H](Cc2ccccc2Cl)N(C)C(=O)[C@H](CCc2ccc(C(F)(F)F)c(Cl)c2)NC(=O)CN(C)C(=O)[C@H](CC2CCCCC2)N(C)C(=O)CN(C)C(=O)CN(C)C1=O [Compound 624] ([NMeA]I[Sar][Sar][NMeCha][Sar][hPhe(3-Cl-4-CF3)][NMePhe(2-Cl)]A[NMeV][NMeD]-Pyrrolidide; lactam N-11)", 6.80),
]

The compound listed as CC[C@H](C)[C@@H]1NC(=O)[C@H](CC(C)C)N(C)C(=O)C[C@@H](C(=O)N2CCS(=O)(=O)CC2)NC(=O)[C@H]([C@@H](C)CC)N(C)C(=O)C2(CCCC2)NC(=O)[C@@H]2CCCN2C(=O)[C@H](CCc2ccc(C(F)(F)F)c(Cl)c2)NC(=O)CN(C)C(=O)[C@H](CC2CCCCC2)N(C)C(=O)CN(C)C(=O)CN(C)C1=O [Compound 1279] ([NMeL]I[Sar][Sar][NMeCha][Sar][hPhe(3-Cl-4-CF3)]P[Ac5c][NMeI]D-{Thiomorpholino(1,1-dioxo)}; lactam N-11) shows pIC50 equal to 7.80

The compound listed as CCCC[C@@H]1NC(=O)[C@H](Cc2cccc(I)c2)NC(=O)CN(C)C(=O)[C@H](Cc2ccc(Cl)cc2)N(C)C(=O)CN(C)C(=O)CN(C)C(=O)[C@H]([C@@H](C)CC)NC(=O)[C@H](CC(C)C)N(C)C(=O)C[C@@H](C(=O)N2CCCCC2)N(C)C(=O)[C@H](CC(C)C)NC(=O)[C@H](Cc2ccccc2C(F)(F)F)N(C)C1=O [Compound 813] ([NMeL]I[Sar][Sar][NMePhe(4-Cl)][Sar][Phe(3-I)][Nle][NMePhe(2-CF3)]L[NMeD]-Piperidide; lactam N-11) shows pIC50 equal to 7.16

Data provenance is patent US12371454B2.
